B1: TRIB1 (parent)
chain: EIGTSDQIVPEYQEDSDISSFFC

# Variants of: B1
# procedure_summary: protein stability index of a GFP-peptide fusion (GPS, HEK-293T) (PSI 1-6); higher = more stable;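 further: lentivirally expressed fusions sorted by FACS into six bins by GFP to DsRed ratio, PSI derived from sequencing read proportions per bin multiplied by bin number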
# condition_parameters: c terminus: native
# protein stability index values compiled below
When you answer, write just the number.

Solved entries (count: 3):
[[record]]
mutant_id = "S5P"
reported_result = 3.07

[[record]]
mutant_id = "C23E"
reported_result = 2.94

[[record]]
mutant_id = "I18F"
reported_result = 2.91


Q) Specify protein stability index for "F22I" and stop.
A) 4.03

Q) For the variant "F21D" , give its measured protein stability index value.
A) 3.9

Q) Name the recorded protein stability index of the variant listed here: "S5W"
A) 3.02

Q) Give the value of protein stability index reported for the following: "S20C"
A) 2.49

Q) Hello, please tell me recorded protein stability index for this one: "S5D"
A) 2.97

Q) Identify measured protein stability index corresponding to "Q13C"
A) 2.59

Q) Find the measured protein stability index of "E1G" and report it.
A) 2.58

FYI, the data here is from the supplement of paper PMC10567573.
